# Tested on: 521955-158-R6-J3-PDC complex spheroid growth, % test/control
# assay text: Anticancer human tumor 521955-158-R6-J3-PDC patient-derived pancreatic carcinoma cell line growth inhibition [Asc]
# assay context: second compound 0.01 µM; first compound 0.0316 µM; stronger effect = lower value
# Description: Multicellular complex tumor spheroid response to apoptosis pathway targeting inhibitors Alrizomadlin, Pelcitoclax, and Dasminapant in combination with a variety of drugs and investigational agents in selected tumor cell lines […] Compounds. […] If the clinical Cmax for an agent had not been determined, the highest concentration tested was 10 microM. […]

compound: Cn1ncnc1[C@H]1c2n[nH]c(=O)c3cc(F)cc(c23)N[C@@H]1c1ccc(F)cc1 + CNC(C)C(=O)NC1CN(S(=O)(=O)c2cccc(S(=O)(=O)N3CCC4CCC(C(=O)NC(c5ccccc5)c5ccccc5)N4C(=O)C(NC(=O)C(C)NC)C3)c2)CCC2CCC(C(=O)NC(c3ccccc3)c3ccccc3)N2C1=O
system name: 521955-158-R6-J3-PDC complex spheroid growth, % test/control
viability, T/C [%]: 153

compound: CCN1CCN(Cc2ccc(Nc3ncc(F)c(-c4cc(F)c5nc(C)n(C(C)C)c5c4)n3)nc2)CC1 + CNC(C)C(=O)NC1CN(S(=O)(=O)c2cccc(S(=O)(=O)N3CCC4CCC(C(=O)NC(c5ccccc5)c5ccccc5)N4C(=O)C(NC(=O)C(C)NC)C3)c2)CCC2CCC(C(=O)NC(c3ccccc3)c3ccccc3)N2C1=O
system name: 521955-158-R6-J3-PDC complex spheroid growth, % test/control
viability, T/C [%]: 86.1

compound: O=C(c1cc(Cc2n[nH]c(=O)c3ccccc23)ccc1F)N1CCN(C(=O)C2CC2)CC1 + CNC(C)C(=O)NC1CN(S(=O)(=O)c2cccc(S(=O)(=O)N3CCC4CCC(C(=O)NC(c5ccccc5)c5ccccc5)N4C(=O)C(NC(=O)C(C)NC)C3)c2)CCC2CCC(C(=O)NC(c3ccccc3)c3ccccc3)N2C1=O
system name: 521955-158-R6-J3-PDC complex spheroid growth, % test/control
viability, T/C [%]: 166

====

# Tested on: 521955-158-R6-J3-PDC complex spheroid growth, % test/control
# assay text: Anticancer human tumor 521955-158-R6-J3-PDC cell line growth inhibition [Asc];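 further: spheroids exposed to compounds for 7 days; 100% = DMSO vehicle control wells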
# assay context: second compound 0.3 µM; first compound 0.0316 µM; stronger effect = lower value
# From the text: Multicellular complex tumor spheroid response to apoptosis pathway targeting inhibitors Alrizomadlin, Pelcitoclax, and Dasminapant in combination with a variety of drugs and investigational agents in selected tumor cell lines […] Compounds. […] If the clinical Cmax for an agent had not been determined, the highest concentration tested was 10 microM. […]
Listed compounds paired with reported viability, T/C

compound: O=C(c1ccc(F)c(F)c1Nc1ccc(I)cc1F)N1CC(O)([C@@H]2CCCCN2)C1 + CCN1C(C(=O)NC23CCC(C(=O)O)(CC2)CC3)C(c2cccc(Cl)c2F)C2(C(=O)Nc3cc(Cl)ccc32)C12CCCCC2
system name: 521955-158-R6-J3-PDC complex spheroid growth, % test/control
viability, T/C / %: 120

compound: CCN1CCN(Cc2ccc(Nc3ncc(F)c(-c4cc(F)c5nc(C)n(C(C)C)c5c4)n3)nc2)CC1 + CCN1C(C(=O)NC23CCC(C(=O)O)(CC2)CC3)C(c2cccc(Cl)c2F)C2(C(=O)Nc3cc(Cl)ccc32)C12CCCCC2
system name: 521955-158-R6-J3-PDC complex spheroid growth, % test/control
viability, T/C / %: 102

compound: COc1c(OCCCN2CCOCC2)ccc2c3n(c(=NC(=O)c4cnc(N)nc4)nc12)CCN3 + CCN1C(C(=O)NC23CCC(C(=O)O)(CC2)CC3)C(c2cccc(Cl)c2F)C2(C(=O)Nc3cc(Cl)ccc32)C12CCCCC2
system name: 521955-158-R6-J3-PDC complex spheroid growth, % test/control
viability, T/C / %: 70.1

compound: NC1CCC(NC2CC2c2ccccc2)CC1 (stereo not given) + CCN1C(C(=O)NC23CCC(C(=O)O)(CC2)CC3)C(c2cccc(Cl)c2F)C2(C(=O)Nc3cc(Cl)ccc32)C12CCCCC2
system name: 521955-158-R6-J3-PDC complex spheroid growth, % test/control
viability, T/C / %: 110

compound: C=CC(=O)N1CCN(c2nc(=O)n(-c3c(C)ccnc3C(C)C)c3nc(-c4c(O)cccc4F)c(F)cc23)C(C)C1 (stereo not given) + CCN1C(C(=O)NC23CCC(C(=O)O)(CC2)CC3)C(c2cccc(Cl)c2F)C2(C(=O)Nc3cc(Cl)ccc32)C12CCCCC2
system name: 521955-158-R6-J3-PDC complex spheroid growth, % test/control
viability, T/C / %: 101

====

# System: 521955-158-R6-J3-PDC complex spheroid growth, % test/control
# assay text: Anticancer human tumor 521955-158-R6-J3-PDC cell line growth inhibition [Asc];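 further: spheroids exposed to compounds for 7 days; 100% = DMSO vehicle control wells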
# assay context: second compound 0.949 µM; first compound 3.16 µM; stronger effect = lower value
Below: a set of entries, each annotated with reported viability, T/C.

compound: C=CC(=O)N1CCN(c2nc(=O)n(-c3c(C)ccnc3C(C)C)c3nc(-c4c(O)cccc4F)c(F)cc23)C(C)C1 (centres undefined) + CCN1C(C(=O)NC23CCC(C(=O)O)(CC2)CC3)C(c2cccc(Cl)c2F)C2(C(=O)Nc3cc(Cl)ccc32)C12CCCCC2
viability, T/C: 121%
//
compound: O=C(c1cc(Cc2n[nH]c(=O)c3ccccc23)ccc1F)N1CCN(C(=O)C2CC2)CC1 + CCN1C(C(=O)NC23CCC(C(=O)O)(CC2)CC3)C(c2cccc(Cl)c2F)C2(C(=O)Nc3cc(Cl)ccc32)C12CCCCC2
viability, T/C: 89.2%
//
compound: C#Cc1c(F)ccc2cc(O)cc(-c3ncc4c(N5CC6CCC(C5)N6)nc(OCC56CCCN5CC(F)C6)nc4c3F)c12 (centres undefined) + CCN1C(C(=O)NC23CCC(C(=O)O)(CC2)CC3)C(c2cccc(Cl)c2F)C2(C(=O)Nc3cc(Cl)ccc32)C12CCCCC2
viability, T/C: 41.7%
//
compound: C=C(F)C(=O)N1CCN(c2nc(OCC3CCCN3C)nc3c2CCN(c2cccc4cccc(Cl)c24)C3)CC1CC#N (centres undefined) + CCN1C(C(=O)NC23CCC(C(=O)O)(CC2)CC3)C(c2cccc(Cl)c2F)C2(C(=O)Nc3cc(Cl)ccc32)C12CCCCC2
viability, T/C: 84.9%

====

# Test system: 521955-158-R6-J3-PDC complex spheroid growth, % test/control
# assay text: Anticancer human tumor 521955-158-R6-J3-PDC cell line growth inhibition [Asc];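 further: spheroids exposed to compounds for 7 days; 100% = DMSO vehicle control wells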
# assay context: second compound 1 µM; first compound 0.0949 µM; stronger effect = lower value

compound: NC(=O)C(=Cn1cnc(-c2cc(C(F)(F)F)cc(C(F)(F)F)c2)n1)c1cncnc1 + Cc1c(S(C)(=O)=O)c(-c2cc(F)cc(N3CCN(c4ccc(NS(=O)(=O)c5ccc(NC(CCN6CCC(C(=O)OCCCP(=O)(O)O)CC6)CSc6ccccc6)c(S(=O)(=O)C(F)(F)F)c5)cc4)CC3)c2)c(-c2ccc(Cl)cc2)n1C(C)C
viability, T/C, %: 43.8
--
compound: NC(=O)C(=Cn1cnc(-c2cc(C(F)(F)F)cc(C(F)(F)F)c2)n1)c1cncnc1 + CNC(C)C(=O)NC1CN(S(=O)(=O)c2cccc(S(=O)(=O)N3CCC4CCC(C(=O)NC(c5ccccc5)c5ccccc5)N4C(=O)C(NC(=O)C(C)NC)C3)c2)CCC2CCC(C(=O)NC(c3ccccc3)c3ccccc3)N2C1=O
viability, T/C, %: 86.1
--
compound: Cc1nc(N2CCC3(CC2)COC(C)C3N)c(CO)nc1Sc1ccnc(N)c1Cl (centres undefined) + CNC(C)C(=O)NC1CN(S(=O)(=O)c2cccc(S(=O)(=O)N3CCC4CCC(C(=O)NC(c5ccccc5)c5ccccc5)N4C(=O)C(NC(=O)C(C)NC)C3)c2)CCC2CCC(C(=O)NC(c3ccccc3)c3ccccc3)N2C1=O
viability, T/C, %: 74.6
--
compound: CCN1C(C(=O)NC23CCC(C(=O)O)(CC2)CC3)C(c2cccc(Cl)c2F)C2(C(=O)Nc3cc(Cl)ccc32)C12CCCCC2 (centres undefined) + CNC(C)C(=O)NC1CN(S(=O)(=O)c2cccc(S(=O)(=O)N3CCC4CCC(C(=O)NC(c5ccccc5)c5ccccc5)N4C(=O)C(NC(=O)C(C)NC)C3)c2)CCC2CCC(C(=O)NC(c3ccccc3)c3ccccc3)N2C1=O
viability, T/C, %: 90.1

====

Listing of entries alongside the reported viability, T/C.
# Tested on: 521955-158-R6-J3-PDC complex spheroid growth, % test/control
# assay text: Anticancer human tumor 521955-158-R6-J3-PDC cell line growth inhibition [Asc];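 further: spheroids exposed to compounds for 7 days; 100% = DMSO vehicle control wells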
# assay context: second compound 0.0316 µM; first compound 0.03 µM; stronger effect = lower value

compound: Cc1nc(N2CCC3(CC2)COC(C)C3N)c(CO)nc1Sc1ccnc(N)c1Cl (stereo not drawn) + Cc1c(S(C)(=O)=O)c(-c2cc(F)cc(N3CCN(c4ccc(NS(=O)(=O)c5ccc(NC(CCN6CCC(C(=O)OCCCP(=O)(O)O)CC6)CSc6ccccc6)c(S(=O)(=O)C(F)(F)F)c5)cc4)CC3)c2)c(-c2ccc(Cl)cc2)n1C(C)C
viability, T/C, %: 75
--
compound: NC(=O)C(=Cn1cnc(-c2cc(C(F)(F)F)cc(C(F)(F)F)c2)n1)c1cncnc1 + CNC(C)C(=O)NC1CN(S(=O)(=O)c2cccc(S(=O)(=O)N3CCC4CCC(C(=O)NC(c5ccccc5)c5ccccc5)N4C(=O)C(NC(=O)C(C)NC)C3)c2)CCC2CCC(C(=O)NC(c3ccccc3)c3ccccc3)N2C1=O
viability, T/C, %: 62.9
--
compound: NC(=O)C(=Cn1cnc(-c2cc(C(F)(F)F)cc(C(F)(F)F)c2)n1)c1cncnc1 + Cc1c(S(C)(=O)=O)c(-c2cc(F)cc(N3CCN(c4ccc(NS(=O)(=O)c5ccc(NC(CCN6CCC(C(=O)OCCCP(=O)(O)O)CC6)CSc6ccccc6)c(S(=O)(=O)C(F)(F)F)c5)cc4)CC3)c2)c(-c2ccc(Cl)cc2)n1C(C)C
viability, T/C, %: 82.1
